Recorded values, source ChEMBL document CHEMBL1148435.

ASSAYED_SYSTEM: Delta-type opioid receptor (Homo sapiens)
Sequence (P41143 whole entry): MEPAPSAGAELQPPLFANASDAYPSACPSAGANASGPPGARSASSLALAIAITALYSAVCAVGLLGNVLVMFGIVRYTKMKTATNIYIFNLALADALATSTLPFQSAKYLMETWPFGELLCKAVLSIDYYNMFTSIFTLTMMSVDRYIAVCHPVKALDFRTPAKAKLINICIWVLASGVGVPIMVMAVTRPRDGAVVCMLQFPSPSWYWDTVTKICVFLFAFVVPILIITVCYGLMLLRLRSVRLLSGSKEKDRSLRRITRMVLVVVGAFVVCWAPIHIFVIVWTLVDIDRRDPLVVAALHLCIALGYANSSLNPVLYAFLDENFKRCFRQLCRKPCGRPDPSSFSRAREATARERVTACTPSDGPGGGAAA
ASSAY_INFO: Efficacy relative to stimulation of [35S]GTP-gamma-S, binding by SNC80 was calculated for human delta opioid receptor
Assay type: functional
MEASURED_METRIC: Relative efficacy
Numbers only.

Record excerpt, results attached:
CCN(CC)C(=O)c1ccc(C(=C2CC3CCC(C2)N3CCc2cccs2)c2ccccc2)cc1 ... 0.78
C=CCN1[C@@H]2CC[C@H]1C/C(=C(/c1ccccc1)c1ccc(C(=O)N(CC)CC)cc1)C2 ... 0.83
CCN(CC)C(=O)c1ccc(C(=C2CC3CCC(C2)N3CCc2ccccc2)c2cccc(OC)c2)cc1 ... 0.8
CCN(CC)C(=O)c1ccc(/C(=C2\C[C@H]3CC[C@@H](C2)N3C)c2ccccc2)cc1 ... 0.87
CCN(CC)C(=O)c1ccc(C(=C2CC3CCC(C2)N3CCC2CCCCC2)c2ccccc2)cc1 ... 0.92

Report Relative efficacy for every entry below.
1. CCN(CC)C(=O)c1ccc(C(=C2CC3CCC(C2)N3C)c2ccc(O)cc2)cc1
2. O=C(c1ccc(C(=C2CC3CCC(C2)N3CCc2ccccc2)c2ccccc2)cc1)N1CCOCC1
3. CCN(CC)C(=O)c1ccc(C(=C2CC3CCC(C2)N3C)c2ccc(OC)cc2)cc1
4. CCCN(CCC)C(=O)c1ccc(C(=C2CC3CCC(C2)N3CCc2ccccc2)c2ccccc2)cc1
5. CCN(CC)C(=O)c1ccc(/C(=C2/C[C@H]3CC[C@@H](C2)N3CCc2ccccc2)c2ccccc2)cc1
6. CCN(CCO)C(=O)c1ccc(C(=C2CC3CCC(C2)N3CCc2ccccc2)c2ccccc2)cc1
7. CCN(CC)C(=O)c1ccc(/C(=C2\C[C@H]3CC[C@@H](C2)N3)c2ccccc2)cc1
8. CCN(CC)C(=O)c1ccc(C(=C2CC3CCC(C2)N3CCc2ccc(F)cc2)c2ccccc2)cc1

**A:**
1: 0.86; 2: 0.76; 3: 0.85; 4: 0.82; 5: 0.88; 6: 0.77; 7: 1.02; 8: 0.76

List the reported Relative efficacy of each molecule below.
1. C=C(C)CN(CC)C(=O)c1ccc(/C(=C2\C[C@H]3CC[C@@H](C2)N3CCc2ccccc2)c2ccccc2)cc1
2. CCN(CC)C(=O)c1ccc(/C(=C2/C[C@H]3CC[C@@H](C2)N3)c2ccccc2)cc1
3. CCN(CC)C(=O)c1ccc(C(=C2CC3CCC(C2)N3CCCc2ccccc2)c2ccccc2)cc1

**A:**
1. 0.9
2. 1
3. 0.88

List reported Relative efficacy for each of these molecules:
1. CCCN1C2CCC1CC(=C(c1ccccc1)c1ccc(C(=O)N(CC)CC)cc1)C2
2. CCN(CC)C(=O)c1ccc(C(=C2CC3CCC(C2)N3CCOc2ccccc2)c2ccccc2)cc1

**A:**
[0.87, 0.84]

* * *

ASSAYED_SYSTEM: Mu-type opioid receptor (Homo sapiens, UniProt P35372)
Sequence (P35372 whole entry): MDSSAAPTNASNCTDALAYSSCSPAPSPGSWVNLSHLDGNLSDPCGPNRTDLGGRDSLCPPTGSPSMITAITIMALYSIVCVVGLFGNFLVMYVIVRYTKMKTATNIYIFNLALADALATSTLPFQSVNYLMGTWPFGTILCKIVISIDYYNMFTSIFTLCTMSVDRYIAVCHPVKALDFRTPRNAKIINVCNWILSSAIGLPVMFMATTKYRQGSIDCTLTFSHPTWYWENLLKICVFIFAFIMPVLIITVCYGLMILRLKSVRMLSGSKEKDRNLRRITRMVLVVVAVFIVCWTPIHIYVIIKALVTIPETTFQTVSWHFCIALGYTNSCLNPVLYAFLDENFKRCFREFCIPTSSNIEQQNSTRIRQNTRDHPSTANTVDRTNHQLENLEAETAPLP
ASSAY_INFO: Binding affinity for mu opioid receptor
MEASURED_METRIC: pKi
One number for each entry, as −log10 of the molar value.

Solved entries:
CCN(CC)C(=O)c1ccc(C(=C2CC3CCC(C2)N3C)c2ccc(OC)cc2)cc1 ... 5.82
CCN(CC)C(=O)c1ccc(C(=C2CC3CCC(C2)N3CCc2c[nH]c3ccccc23)c2ccccc2)cc1 ... 6.47
CCN(CC)C(=O)c1ccc(/C(=C2/C[C@H]3CC[C@@H](C2)N3)c2ccccc2)cc1 ... 5.64

Hi team, please reply with pKi for each item in this list.
1. CCN(CC)C(=O)c1ccc(C(=C2CC3CCC(C2)N3CCCc2ccccc2)c2ccccc2)cc1
2. CCCN1C2CCC1CC(=C(c1ccccc1)c1ccc(C(=O)N(CC)CC)cc1)C2
3. CCN(CCO)C(=O)c1ccc(C(=C2CC3CCC(C2)N3CCc2ccccc2)c2ccccc2)cc1
4. CCN(CC)C(=O)c1ccc(C(=C2CC3CCC(C2)N3CCC2CCCCC2)c2ccccc2)cc1
5. C=C(C)CN(CC)C(=O)c1ccc(/C(=C2\C[C@H]3CC[C@@H](C2)N3CCc2ccccc2)c2ccccc2)cc1
6. CCN(CC)C(=O)c1ccc(/C(=C2/C[C@H]3CC[C@@H](C2)N3CCc2ccccc2)c2ccccc2)cc1
7. CCCN(CCC)C(=O)c1ccc(C(=C2CC3CCC(C2)N3CCc2ccccc2)c2ccccc2)cc1

**A:**
6.98
6.54
6.54
6.35
6.64
6.50
6.19

Report pKi for each item below.
1. CCN(CC)C(=O)c1ccc(C(=C2CC3CCC(C2)N3C)c2cccc(O)c2)cc1
2. O=C(c1ccc(C(=C2CC3CCC(C2)N3CCc2ccccc2)c2ccccc2)cc1)N1CCOCC1
3. CC1CCCC(C)N1C(=O)c1ccc(/C(=C2\C[C@H]3CC[C@@H](C2)N3CCc2ccccc2)c2ccccc2)cc1 (stereo partly drawn)

**A:**
6.14
6.63
6.24

Go through the items and report each one's pKi.
1. CCN(CC)C(=O)c1ccc(C(=C2CC3CCC(C2)N3C)c2ccc(O)cc2)cc1
2. CCN(CC)C(=O)c1ccc(C(=C2CC3CCC(C2)N3CCc2ccc(F)cc2)c2ccccc2)cc1
3. CCN(CC)C(=O)c1ccc(C(=C2CC3CCC(C2)N3C)c2cccc(OC)c2)cc1
4. CCN(CC)C(=O)c1ccc(C(=C2CC3CCC(C2)N3CCOc2ccccc2)c2ccccc2)cc1

**A:**
6.71
6.41
6.16
6.20

**Q:** Fill in reported pKi for this entry: `C=CCN1[C@@H]2CC[C@H]1C/C(=C(\c1ccccc1)c1ccc(C(=O)N(CC)CC)cc1)C2`
**A:** 6.49
